B1: Serine/threonine-protein kinase A-Raf, residues 21 to 89; numbered along this chain, P10398 (parent)
chain: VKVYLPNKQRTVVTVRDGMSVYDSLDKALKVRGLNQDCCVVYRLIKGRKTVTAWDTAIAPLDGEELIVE

variants of: B1; assay: abundance fitness (aPCA) (normalised: wild type 0, dead -1); higher = more abundant; growth selection in yeast, the domain comes from the species named; details: Homo sapiens
reported-property: abundance fitness
One number for each entry.

- mutation-spec: "R43K"
  abundance fitness: -0.205
- mutation-spec: "V12K"
  abundance fitness: -0.111
- mutation-spec: "V13S"
  abundance fitness: -1
- mutation-spec: "D55S"
  abundance fitness: -0.168
- mutation-spec: "R10D"
  abundance fitness: -0.281
- mutation-spec: "V21G"
  abundance fitness: -1.04
- mutation-spec: "L61A"
  abundance fitness: -0.168
- mutation-spec: "D55E"
  abundance fitness: -0.089

Record abundance fitness for all entries; do not skip any.
1. N35L
2. V15T

1. -0.32
2. -0.147

These data points were gathered from the Human Domainome abundance scans (Beltran et al. 2025).
